Measured IC50, human fluorogenic collagen assay, listed per entry for reference.
Molecular target: activated human MMP13 (human, UniProt P45452 104-471)
Test: cell-based or functional assay
Field: numeric (nM). Do not append units.

Quick one: IC50, human fluorogenic collagen assay of 516G08-40E09 clone 76 (bispecific antibody) EVQLVESGGGLVQPGGSLRLSCAGSGSIFRINVMAWYRQAPGKQRELVAAITSGGTTNYADSVKGRFTISRDNSKNTVYLQMNSLRPEDTAVYYCYADIGWPYVLDYDFWGQGTLVTVSSGGGGSGGGGSGGGGSGGGGSGGGGSGGGGSGGGGSEVQLVESGGGSVQAGGSLRLSCAASGSTFSRYSMNWYRQAPGKQREFVAGISVGRITNYAVSVRGRFTISRDNAEGTGYLQMNSLKPEDTAVYYCNAGGLQGYWGLGTLVTVSS ? 3.55
